Assay Target: WEE1 (Homo sapiens)
Construct: purchased Thermo Fisher PR7373A
Assay Overview: Selectivity versus WEE1 assay (ADP-Glo enzymatic assay)
Assay type: biochemical
Stated Conditions: fold difference in selectivity for PKMYT1 over WEE1; banded
Method: Selectivity versus WEE1 assay: Selectivity was established using the same format as outlined for PKMYT1. […] After 60 minutes the luminescence signal was read on a PHERAStar FS microplate reader (BMG Labtech). Data analysis: Data was captured and analysed within the Dotmatics Studies software module where dose response curves were generated and IC50 values determined. […]
Reported Endpoint: PKMYT1 vs. WEE1 selectivity

In the examples that follow, each entry is paired with its recorded PKMYT1 vs. WEE1 selectivity.
[[record]]
molecule = "Cc1ccc(O)c(C)c1NC(=O)c1cnc(Nc2cccc3scnc23)s1"
recorded_measurement = "X (100-<1000 fold)"

[[record]]
molecule = "Cc1ccc(O)c(C)c1NC(=O)c1cnc(Nc2ncccc2F)s1"
recorded_measurement = "Y (1000-5000 fold)"

[[record]]
molecule = "Cc1ccc(O)c(C)c1NC(=O)c1cnc(Nc2cc(C(=O)N3CCCC3)n(C)n2)s1"
recorded_measurement = "W (10-<100 fold)"

[[record]]
molecule = "Cc1ccc(O)c(C)c1NC(=O)c1cnc(Nc2n[nH]cc2Br)s1"
recorded_measurement = "X (100-<1000 fold)"


Given Cc1ccc(O)c(C)c1NC(=O)c1cnc(Nc2nn(C)c3ccc(F)cc23)s1 , state its recorded PKMYT1 vs. WEE1 selectivity.
X (100-<1000 fold)

====

For each record, write down the corresponding pIC50.
Assay Target: WEE1 (Homo sapiens, UniProt P30291)
Construct: purchased Thermo Fisher PR7373A
Sequence (P30291 whole entry): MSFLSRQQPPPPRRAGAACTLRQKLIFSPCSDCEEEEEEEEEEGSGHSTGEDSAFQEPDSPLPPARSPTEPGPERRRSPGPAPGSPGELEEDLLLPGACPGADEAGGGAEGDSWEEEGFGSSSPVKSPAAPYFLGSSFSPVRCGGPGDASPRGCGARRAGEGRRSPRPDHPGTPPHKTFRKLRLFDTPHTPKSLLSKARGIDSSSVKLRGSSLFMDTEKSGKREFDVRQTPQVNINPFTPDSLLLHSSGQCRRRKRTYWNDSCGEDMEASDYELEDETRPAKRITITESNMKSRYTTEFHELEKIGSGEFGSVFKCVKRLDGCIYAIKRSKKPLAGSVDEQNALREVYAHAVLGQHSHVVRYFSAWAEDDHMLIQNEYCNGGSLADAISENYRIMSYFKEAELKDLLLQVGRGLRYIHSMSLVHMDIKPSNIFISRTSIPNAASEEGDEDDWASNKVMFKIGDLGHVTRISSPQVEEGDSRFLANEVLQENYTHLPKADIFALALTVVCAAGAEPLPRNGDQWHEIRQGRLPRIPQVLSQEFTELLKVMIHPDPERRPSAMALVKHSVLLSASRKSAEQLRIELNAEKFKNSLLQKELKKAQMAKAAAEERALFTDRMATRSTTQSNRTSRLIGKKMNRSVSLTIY
Assay Overview: Selectivity versus WEE1 assay (ADP-Glo enzymatic assay)
Format: biochemical
Stated Conditions: WEE1 15 nM; ADP-Glo; banded values
pIC50: −log10 of the molar value.

Given Cc1ccc(O)c(C)c1NC(=O)c1cnc(Nc2nc(N3CCOCC3)ccc2Cl)s1 , state its recorded pIC50.
4.96 to 6.00

Given Cc1cn(-c2cnn(C(F)F)c2)nc1Nc1ncc(C(=O)Nc2c(C)ccc(O)c2C)s1 , state its recorded pIC50.
4.96 to 6.00

Given CCOC(=O)c1oc(Nc2ncc(C(=O)Nc3c(C)ccc(O)c3C)s2)nc1C , state its recorded pIC50.
< 4.96

Given Cc1cc(C)c(NC(=O)c2cnc(Nc3ccn(CC(=O)N4CCCC4)n3)s2)c(C)c1O , state its recorded pIC50.
< 4.96

Given Cc1c(O)ccc(Br)c1NC(=O)c1cnc(Nc2ccn(CC(=O)N3CCCC3)n2)s1 , state its recorded pIC50.
< 4.96

Given COC[C@H]1CCCN1C(=O)Cn1cc(C)c(Nc2ncc(C(=O)Nc3c(C)ccc(O)c3C)s2)n1 , state its recorded pIC50.
4.96 to 6.00

Given Cc1ccc(O)c(C)c1NC(=O)c1cnc(Nc2nn(CC(F)F)cc2Cl)s1 , state its recorded pIC50.
4.96 to 6.00

Given COc1cncnc1Nc1ncc(C(=O)Nc2c(C)ccc(O)c2C)s1 , state its recorded pIC50.
4.96 to 6.00

Given Cc1ccc(O)c(C)c1NC(=O)c1cnc(Nc2nc(N3CCN(C)CC3)ccc2Cl)s1 , state its recorded pIC50.
4.96 to 6.00

Given Cc1ccc(O)c(C)c1NC(=O)c1cnc(Nc2cc(C)n(C(C)C(=O)N3CCCC3)n2)s1 (stereo not drawn) , state its recorded pIC50.
< 4.96

Given Cc1ccccc1Nc1ncc(C(=O)Nc2c(C)ccc(O)c2C)s1 , state its recorded pIC50.
< 4.96

Given Cc1ccc(O)c(C)c1NC(=O)c1cnc(Nc2n[nH]cc2Cl)s1 , state its recorded pIC50.
4.96 to 6.00

Given Cc1ccc(O)c(C)c1NC(=O)c1cnc(Nc2cccc(-c3cnn(C(F)F)c3)n2)s1 , state its recorded pIC50.
4.96 to 6.00

Given Cc1c(O)ccc(Br)c1NC(=O)c1cnc(Nc2ccn(C)n2)s1 , state its recorded pIC50.
4.96 to 6.00

Given Cc1cc(Nc2ncc(C(=O)Nc3c(C)ccc(O)c3C)s2)ncn1 , state its recorded pIC50.
4.96 to 6.00

Given Cc1ccc(O)c(C)c1NC(=O)c1cnc(Nc2cc(C#N)n(C)n2)s1 , state its recorded pIC50.
4.96 to 6.00

Given Cc1conc1Nc1ncc(C(=O)Nc2c(C)ccc(O)c2C)s1 , state its recorded pIC50.
4.96 to 6.00

Given Cc1cn(CC(C)O)nc1Nc1ncc(C(=O)Nc2c(C)ccc(O)c2C)s1 (stereo not drawn) , state its recorded pIC50.
4.96 to 6.00

Given Cc1cn(CCF)nc1Nc1ncc(C(=O)Nc2c(C)ccc(O)c2Br)s1 , state its recorded pIC50.
4.96 to 6.00

Given Cc1ccc(O)c(C)c1NC(=O)c1cnc(Nc2ncnc3[nH]ccc23)s1 , state its recorded pIC50.
4.96 to 6.00

Given Cc1cn(C(CO)C(=O)N(C)C2CC2)nc1Nc1ncc(C(=O)Nc2c(C)ccc(O)c2C)s1 (stereo not drawn) , state its recorded pIC50.
4.96 to 6.00

Given Cc1ccc(O)c(C)c1NC(=O)c1cnc(Nc2nn(C)c3ccc(F)cc23)s1 , state its recorded pIC50.
< 4.96

Given C#Cc1cccc(Nc2ncc(C(=O)Nc3c(C)ccc(O)c3C)s2)n1 , state its recorded pIC50.
< 4.96

Given Cc1ccc(O)c(C)c1NC(=O)c1cnc(Nc2nn(CCBr)cc2Cl)s1 , state its recorded pIC50.
4.96 to 6.00

Given Cc1ccc(O)c(C)c1NC(=O)c1cnc(Nc2ncccc2C#N)s1 , state its recorded pIC50.
< 4.96

Given Cc1ccc(O)c(C)c1NC(=O)c1cnc(Nc2cc(N3CCOCC3)ccn2)s1 , state its recorded pIC50.
6.00 to 7.30

Given CCC(C(=O)N(C)C)n1ccc(Nc2ncc(C(=O)Nc3c(C)ccc(O)c3C)s2)n1 (stereo not drawn) , state its recorded pIC50.
< 4.96

Given Cc1ccc(O)c(C)c1NC(=O)c1cnc(Nc2nn(C)c3ccc(C(F)(F)F)cc23)s1 , state its recorded pIC50.
< 4.96

Given Cc1ccc(O)c(C)c1NC(=O)c1cnc(Nc2cccc(-c3cccnc3)n2)s1 , state its recorded pIC50.
4.96 to 6.00

Given Cn1ccc(Nc2ncc(C(=O)Nc3c(Cl)ccc(O)c3F)s2)n1 , state its recorded pIC50.
< 4.96

Given Cc1cn(C(C)C(=O)N2CCN(C)CC2)nc1Nc1ncc(C(=O)Nc2c(C)ccc(O)c2C)s1 (stereo not drawn) , state its recorded pIC50.
< 4.96

Given O=C(Nc1c(Cl)ccc(O)c1F)c1cnc(Nc2ccn(CC(=O)N3CCCC3)n2)s1 , state its recorded pIC50.
< 4.96

Given Cc1ccc(O)c(C)c1NC(=O)c1cnc(Nc2cccc(C3=NCCO3)c2)s1 , state its recorded pIC50.
4.96 to 6.00

Given Cc1ccc(O)c(C)c1NC(=O)c1cnc(Nc2ncnn3cccc23)s1 , state its recorded pIC50.
4.96 to 6.00

Given Cc1ccc(O)c(C)c1NC(=O)c1cnc(Nc2cccc3scnc23)s1 , state its recorded pIC50.
< 4.96

Given Cn1cc(Br)c(Nc2ncc(C(=O)Nc3c(F)ccc(O)c3Cl)s2)n1 , state its recorded pIC50.
< 4.96

====

Assay Target: WEE1 (Homo sapiens)
Construct: purchased Thermo Fisher PR7373A
Assay Overview: Selectivity versus WEE1 assay (ADP-Glo enzymatic assay)
Assay type: biochemical
Stated Conditions: ADP-Glo; 15 nM WEE1, 60 minutes at 26° C.; banded
Reported Endpoint: IC50

Given Cc1ccc(O)c(C)c1NC(=O)c1cnc(Nc2cccc(C(=O)N3CC(F)(F)C(F)(F)C3)c2)s1 , state its recorded IC50.
> 11 µM

Given Cc1ccc(O)c(C)c1NC(=O)c1cnc(Nc2ccn(CC(C)(C)O)n2)s1 , state its recorded IC50.
1 to 11 µM

Given Cc1ccc(O)c(C)c1NC(=O)c1cnc(Nc2cc3ccccn3n2)s1 , state its recorded IC50.
> 11 µM

Given Cc1ccc(O)c(C)c1NC(=O)c1cnc(Nc2cc(C)n(C(C)C)n2)s1 , state its recorded IC50.
0.05 to 1 µM

Given Cc1ccc(O)c(C)c1NC(=O)c1cnc(Nc2nn(C)c(C)c2C)s1 , state its recorded IC50.
1 to 11 µM

Given COC(=O)CCC(=O)N1CC[C@@H](n2ccc(Nc3ncc(C(=O)Nc4c(C)ccc(O)c4C)s3)n2)C1 , state its recorded IC50.
> 11 µM

Given Cc1cn(Cc2ncco2)nc1Nc1ncc(C(=O)Nc2c(C)ccc(O)c2C)s1 , state its recorded IC50.
1 to 11 µM

Given Cc1ccc(O)c(C)c1NC(=O)c1cnc(Nc2ccn(CC(=O)N3CC4(CCC4)C3)n2)s1 , state its recorded IC50.
1 to 11 µM

Given Cc1ccc(O)c(C)c1NC(=O)c1cnc(Nc2ccc(C(C)(C)C)cc2)s1 , state its recorded IC50.
> 11 µM

Given Cc1cc(Nc2ncc(C(=O)Nc3c(C)ccc(O)c3C)s2)n(C2CCCC2)n1 , state its recorded IC50.
> 11 µM

Given Cc1ccc(O)c(C)c1NC(=O)c1cnc(Nc2ccn(CC(=O)N3CCN(C4CCC4)CC3)n2)s1 , state its recorded IC50.
> 11 µM

Given Cc1ccc(O)c(C)c1NC(=O)c1cnc(NCc2ccccc2)s1 , state its recorded IC50.
> 11 µM

Given Cc1ccc(O)c(C)c1NC(=O)c1cnc(Nc2cccc(S(C)(=O)=O)c2)s1 , state its recorded IC50.
> 11 µM

Given CCNC(=O)N1CC[C@@H](n2ccc(Nc3ncc(C(=O)Nc4c(C)ccc(O)c4C)s3)n2)C1 , state its recorded IC50.
> 11 µM

Given Cc1ccc(NS(=O)(=O)C(C)(C)C)nc1Nc1ncc(C(=O)Nc2c(C)ccc(O)c2C)s1.Cl [BAA-335, hydrochloride] , state its recorded IC50.
> 11 µM

Given Cc1ccc(O)c(C)c1NC(=O)c1cnc(Nc2ccn(C3CCCC3)n2)s1 , state its recorded IC50.
1 to 11 µM

Given Cc1ccc(O)c(C)c1NC(=O)c1cnc(Nc2ccn([C@@H]3CCN(C(=O)CC(C)(C)C)C3)n2)s1 , state its recorded IC50.
> 11 µM
